These data points were gathered from patent US4288609A.

Entries and their MIC
Tested on: Staph.Aureus Tour
method: M.I.C. in vitro, gram+ Staph. Aureus (Table 1)
Format: cell-based, Staphylococcus Aureus
assay-setup: Staphylococcus aureus, +10% serum; read-out: M.I.C.
property-measured: MIC

[[record]]
compound = "CCCCCCCCCCCC[N+](C)(C)CCNC(=O)C12CC3CC(CC(C3)C1)C2 [Example 8]"
reported_result = "5 µg/mL"

[[record]]
compound = "CCCCCCCCCCC[N+](CC)(CC)CCNC(=O)C12CC3CC(CC(C3)C1)C2 [Example 11]"
reported_result = "10 µg/mL"

[[record]]
compound = "CCCCCCCCCC[N+](CC)(CC)CCNC(=O)C12CC3CC(CC(C3)C1)C2 [Example 9]"
reported_result = "5 µg/mL"

[[record]]
compound = "CCCCCCCCCCCC[N+](C)(C)CCOC(=O)C12CC3CC(CC(C3)C1)C2 [Example 4]"
reported_result = "5 µg/mL"

[[record]]
compound = "CCCCCCCCCCCC[N+](CC)(CC)CCNC(=O)C12CC3CC(CC(C3)C1)C2 [Example 12]"
reported_result = "10 µg/mL"

[[record]]
compound = "CCCCCCCCCC[N+](C)(C)CCNC(=O)C12CC3CC(CC(C3)C1)C2 [Example 7]"
reported_result = "5 µg/mL"

[[record]]
compound = "CCCCCCCCCC[N+](CC)(CC)CCOC(=O)C12CC3CC(CC(C3)C1)C2 [Example 5]"
reported_result = "5 µg/mL"

[[record]]
compound = "CCCCCCCCCCCC[N+](CC)(CC)CCOC(=O)C12CC3CC(CC(C3)C1)C2 [Example 6]"
reported_result = "10 µg/mL"

[[record]]
compound = "CCCCCCCCCCC[N+](C)(C)CCOC(=O)C12CC3CC(CC(C3)C1)C2 [Example 3]"
reported_result = "5 µg/mL"


----------
Test system: Trichophyton Mentagrophytes Ist. Pasteur
method: Speed of sterilising action, Trichophyton Mentagrophytes (Table 3)
Type: cell-based
assay-setup: 0.5 g/l
Below is a list of entries, each paired with its recorded sterilization time value.
property-measured: sterilization time

[[record]]
compound = "CCCCCCCCCCCC[N+](C)(C)CCNC(=O)C12CC3CC(CC(C3)C1)C2"
target_or_system = "Trichophyton Mentagrophytes Ist. Pasteur"
property_measured = "sterilization time"
reported_result = "10 min"

[[record]]
compound = "CCCCCCCCCCCC[N+](C)(C)CCOC(=O)C12CC3CC(CC(C3)C1)C2"
target_or_system = "Trichophyton Mentagrophytes Ist. Pasteur"
property_measured = "sterilization time"
reported_result = "15 min"

[[record]]
compound = "CCCCCCCCCCCCCCCC[n+]1ccccc1 [Cetyl pyridine chloride, cetyl pyridine chloride, reference compound]"
target_or_system = "Trichophyton Mentagrophytes Ist. Pasteur"
property_measured = "sterilization time"
reported_result = "30 min"

[[record]]
compound = "CCCCCCCCCC[N+](C)(C)CCOC(=O)C12CC3CC(CC(C3)C1)C2 (single isomer, unassigned)"
target_or_system = "Trichophyton Mentagrophytes Ist. Pasteur"
property_measured = "sterilization time"
reported_result = "15 min"


----------
Test system: Pseudomonas Aeruginosa
method: Antibacterial activity in vivo with topical treatment (Table 5)
Design: species or system female CF1 albino mice
assay-setup: 0.25% by weight, topical, 15th day
Experimental: After their backs have been shaved, female CF1 albino mice weighing 18-22 g are scorched (under ether anaesthetic) for 15 seconds with a pad of brass previously immersed in boiling water (7-8% of the body surface). After 90 minutes there is applied to the scorched area 0.1 ml of a suspension of Pseudomonas Aeruginosa bacteria having 15% transmittance at 650 nm. […] On the fifteenth day the percentage of survivors to the tested doses in recorded. […]
property-measured: % survivors

[[record]]
compound = "CCCCCCCCCC[N+](C)(C)CCOC(=O)C12CC3CC(CC(C3)C1)C2 (single isomer, unassigned) [Example 1]"
property_measured = "% survivors"
reported_result = "50%"

[[record]]
compound = "CCCCCCCCCCCCCCCC[n+]1ccccc1 [Cetyl pyridine chloride, cetyl pyridine chloride, reference compound]"
property_measured = "% survivors"
reported_result = "10%"

[[record]]
compound = "CCCCCCCCCCCC[N+](C)(C)CCNC(=O)C12CC3CC(CC(C3)C1)C2 [Example 8]"
property_measured = "% survivors"
reported_result = "30%"

[[record]]
compound = "CCCCCCCCCCCC[N+](C)(C)CCOC(=O)C12CC3CC(CC(C3)C1)C2 [Example 4]"
property_measured = "% survivors"
reported_result = "40%"


----------
Test system: Streptococ. Henclyt. 0203
method: M.I.C. in vitro, gram+ Streptococ. Henclyt. (Table 1)
Assay type: cell-based
assay-setup: +10% serum
Description: The method for evaluating the activity in vitro against bacteria, fungi and protozoa consists in introducing calculated quantities of the substance, the activity of which it is desired to test, into culture media already inoculated with a predetermined number of test germs. […] In table 1 there are recorded the M.I.C. values in γ/ml of the products subject of the present invention, against certain gram+ and gram- bacterial strains, some of which are pathogenic towards human beings.
property-measured: M.I.C.

[[record]]
compound = "CCCCCCCCCC[N+](CC)(CC)CCNC(=O)C12CC3CC(CC(C3)C1)C2 [Example 9]"
property_measured = "M.I.C."
reported_result = "0.5 µg/mL"

[[record]]
compound = "CCCCCCCCCC[N+](C)(C)CCOC(=O)C12CC3CC(CC(C3)C1)C2 (single isomer, unassigned) [Example 2]"
property_measured = "M.I.C."
reported_result = "1 µg/mL"

[[record]]
compound = "CCCCCCCCCC[N+](C)(C)CCOC(=O)C12CC3CC(CC(C3)C1)C2 (single isomer, unassigned) [Example 1]"
property_measured = "M.I.C."
reported_result = "0.1 µg/mL"

[[record]]
compound = "CCCCCCCCCC[N+](CC)(CC)CCNC(=O)C12CC3CC(CC(C3)C1)C2 [Example 10]"
property_measured = "M.I.C."
reported_result = "5 µg/mL"


----------
System: Candida Albic. SKF 2270
method: MIC yeasts, Candida albicans (Table 2)
Type: cell-based
assay-setup: Candida, +10% serum; Sabourand broth; read-out: MIC
property-measured: MIC (µg/mL)

[[record]]
structure_notation = "CCCCCCCCCCC[N+](CC)(CC)CCNC(=O)C12CC3CC(CC(C3)C1)C2"
unit_abbreviation = "µg/mL"
reported_result = 20

[[record]]
structure_notation = "CCCCCCCCCC[N+](CC)(CC)CCOC(=O)C12CC3CC(CC(C3)C1)C2"
unit_abbreviation = "µg/mL"
reported_result = 50

[[record]]
structure_notation = "CCCCCCCCCCCC[N+](C)(C)CCNC(=O)C12CC3CC(CC(C3)C1)C2"
unit_abbreviation = "µg/mL"
reported_result = 20

[[record]]
structure_notation = "CCCCCCCCCCCC[N+](CC)(CC)CCNC(=O)C12CC3CC(CC(C3)C1)C2"
unit_abbreviation = "µg/mL"
reported_result = 20

[[record]]
structure_notation = "CCCCCCCCCCC[N+](C)(C)CCOC(=O)C12CC3CC(CC(C3)C1)C2"
unit_abbreviation = "µg/mL"
reported_result = 20

[[record]]
structure_notation = "CCCCCCCCCCCC[N+](CC)(CC)CCOC(=O)C12CC3CC(CC(C3)C1)C2"
unit_abbreviation = "µg/mL"
reported_result = 50

[[record]]
structure_notation = "CCCCCCCCCCCC[N+](C)(C)CCOC(=O)C12CC3CC(CC(C3)C1)C2"
unit_abbreviation = "µg/mL"
reported_result = 20

[[record]]
structure_notation = "CCCCCCCCCC[N+](C)(C)CCNC(=O)C12CC3CC(CC(C3)C1)C2"
unit_abbreviation = "µg/mL"
reported_result = 50


----------
Tested on: Klens. Pneum. ISM
method: M.I.C. in vitro, gram- Klens. Pneum. (Table 1)
Type: cell-based
assay-setup: without serum; read-out: M.I.C.
Let's look at some compounds and their measured MIC.
property-measured: MIC (µg/mL)

[[record]]
structure_notation = "CCCCCCCCCCC[N+](C)(C)CCOC(=O)C12CC3CC(CC(C3)C1)C2"
property_measured = "MIC"
reported_result = 5

[[record]]
structure_notation = "CCCCCCCCCCCC[N+](C)(C)CCNC(=O)C12CC3CC(CC(C3)C1)C2"
property_measured = "MIC"
reported_result = 5

[[record]]
structure_notation = "CCCCCCCCCCC[N+](CC)(CC)CCNC(=O)C12CC3CC(CC(C3)C1)C2"
property_measured = "MIC"
reported_result = 5

[[record]]
structure_notation = "CCCCCCCCCC[N+](C)(C)CCNC(=O)C12CC3CC(CC(C3)C1)C2"
property_measured = "MIC"
reported_result = 10

[[record]]
structure_notation = "CCCCCCCCCC[N+](CC)(CC)CCOC(=O)C12CC3CC(CC(C3)C1)C2"
property_measured = "MIC"
reported_result = 10

[[record]]
structure_notation = "CCCCCCCCCCCC[N+](C)(C)CCOC(=O)C12CC3CC(CC(C3)C1)C2"
property_measured = "MIC"
reported_result = 2

[[record]]
structure_notation = "CCCCCCCCCCCC[N+](CC)(CC)CCOC(=O)C12CC3CC(CC(C3)C1)C2"
property_measured = "MIC"
reported_result = 10

[[record]]
structure_notation = "CCCCCCCCCCCC[N+](CC)(CC)CCNC(=O)C12CC3CC(CC(C3)C1)C2"
property_measured = "MIC"
reported_result = 5

[[record]]
structure_notation = "CCCCCCCCCC[N+](CC)(CC)CCNC(=O)C12CC3CC(CC(C3)C1)C2"
property_measured = "MIC"
reported_result = 10

